Molecular target: UniProtKB Q07869
Sequence (Q07869 239-466 limits assumed): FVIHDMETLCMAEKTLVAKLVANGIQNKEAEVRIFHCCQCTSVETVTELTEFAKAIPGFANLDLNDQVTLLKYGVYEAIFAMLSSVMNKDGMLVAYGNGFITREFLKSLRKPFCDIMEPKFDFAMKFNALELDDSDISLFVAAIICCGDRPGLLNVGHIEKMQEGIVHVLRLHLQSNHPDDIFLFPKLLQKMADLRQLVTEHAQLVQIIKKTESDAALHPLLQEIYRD
Test: PPAR activation in vitro, mammalian-one-hybrid (M1H) GAL4-PPAR-LBD luciferase reporter assay
Conditions: transiently transfected HEK293 cells, compound incubation 16-20 h, six concentrations in duplicate
Description: The assays were carried out in vitro using mammalian-one-hybrid assays (M1H) comprising GAL4-DNA binding domain-PPAR-LBD fusion constructs in conjunction with 5×GAL4-sites driven Photinus pyralis luciferase reporter constructs in transiently transfected HEK293 cells. The cells were transfected 4-6 h and grown overnight before compounds were added. Compound incubation was 16-20 h. […]
QUANTITY_KIND: EC50

Q: Complete the entry with EC50 for CC/C=C\C/C=C\C/C=C\C/C=C\C/C=C\CCCCOC(CC)C(=O)O (stereo not drawn) [A]
A: 307 nM

Q: Answer with reported EC50 of CC/C=C\C/C=C\C/C=C\C/C=C\C/C=C\CCCCO[C@H](CC)C(=O)O [C]
A: 167 nM

Q: Give the value of EC50 reported for the following: CC/C=C\C/C=C\C/C=C\C/C=C\C/C=C\CCCCO[C@@H](CC)C(=O)O [B]
A: 405 nM

====

biological target: PPARγ (Homo sapiens, UniProt P37231); test: PPAR activation in vitro, mammalian-one-hybrid (M1H) GAL4-PPAR-LBD luciferase reporter assay; details: transiently transfected HEK293 cells, compound incubation 16-20 h, six concentrations in duplicate
Sequence (P37231 238-503 limits assumed): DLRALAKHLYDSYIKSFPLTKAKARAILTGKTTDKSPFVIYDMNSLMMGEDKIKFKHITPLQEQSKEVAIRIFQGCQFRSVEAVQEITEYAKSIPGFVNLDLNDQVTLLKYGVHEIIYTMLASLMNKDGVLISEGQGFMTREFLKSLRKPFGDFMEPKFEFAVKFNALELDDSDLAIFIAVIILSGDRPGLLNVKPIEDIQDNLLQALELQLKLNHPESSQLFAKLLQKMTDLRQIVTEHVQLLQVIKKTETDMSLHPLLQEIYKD
QUANTITY_KIND: EC50 (nM)
Only the number, expressed in nM, is required.

Q: Find the measured EC50 of CC/C=C\C/C=C\C/C=C\C/C=C\C/C=C\CCCCO[C@H](CC)C(=O)O and report it.
A: 515

Q: Supply EC50 value. Item: CC/C=C\C/C=C\C/C=C\C/C=C\C/C=C\CCCCOC(CC)C(=O)O (stereo not drawn)
A: 806

Q: In one line, give reported EC50 of the entry CC/C=C\C/C=C\C/C=C\C/C=C\C/C=C\CCCCO[C@@H](CC)C(=O)O .
A: 644
